Assay: Example 1 single dose study: pharmacokinetics
Format: in vivo, human
Settings: both sexes, human, plasma, po, 100 mg, single oral dose 100 mg, healthy volunteers, final mean; read-out: T½ (converted)
Reported property: half-life (h)
Unit h implied. Number only.

Given O=C(Nc1nc(-c2cc(Cl)cs2)c(N2CCN(C3CCCCC3)CC2)s1)c1cnc(N2CCC(C(=O)O)CC2)c(Cl)c1 , state its recorded half-life. 18

====

Assay: Example 2 multi-dose study: pharmacokinetics
Type: in vivo, human
Conditions: both sexes, human, in vivo, oral, 3 mg, 3 mg once daily, Study Day 1, mean; read-out: AUC0-last
Reported property: AUC(0-t) (ng·h/mL)
Unit ng·h/mL implied. Number only.

Given O=C(Nc1nc(-c2cc(Cl)cs2)c(N2CCN(C3CCCCC3)CC2)s1)c1cnc(N2CCC(C(=O)O)CC2)c(Cl)c1 , state its recorded AUC(0-t). 235

====

Assay: Example 2 multi-dose study: pharmacokinetics
Type: in vivo, human
Settings: both sexes, human, in vivo, oral; 20 mg once daily, Study Day 14, simulated data at steady-state
Reported property: AUC(0-inf) (ng·h/mL)
Unit ng·h/mL implied. Number only.

Given O=C(Nc1nc(-c2cc(Cl)cs2)c(N2CCN(C3CCCCC3)CC2)s1)c1cnc(N2CCC(C(=O)O)CC2)c(Cl)c1 [Formula I] , state its recorded AUC(0-inf). 7150

====

Assay: Example 2 multi-dose study: pharmacokinetics
Assay type: in vivo, human
Conditions: both sexes, human, plasma, oral, 20 mg, 20 mg dose administered over about fourteen (14) days, human; Table 3: simulated data at steady-state; read-out: mean AUC0-last
Reported property: AUC(0-t)

Given O=C(Nc1nc(-c2cc(Cl)cs2)c(N2CCN(C3CCCCC3)CC2)s1)c1cnc(N2CCC(C(=O)O)CC2)c(Cl)c1 [Formula I] , state its recorded AUC(0-t). ~3610 ng·h/mL

====

Assay: Example 1 single dose study: pharmacokinetics
Format: in vivo, human
Details: both sexes, plasma, oral; single 10 mg daily dose, human; read-out: mean AUC0-last
Reported property: AUC(0-t)

Given O=C(Nc1nc(-c2cc(Cl)cs2)c(N2CCN(C3CCCCC3)CC2)s1)c1cnc(N2CCC(C(=O)O)CC2)c(Cl)c1 [Formula I] , state its recorded AUC(0-t). 840 to 1640 ng·h/mL

====

Experiment: Example 2 multi-dose study: pharmacokinetics
Assay type: in vivo, human
Conditions: both sexes, human, in vivo, oral; multi-dose study, independent of dose
Reported property: half-life at 14 days

Given O=C(Nc1nc(-c2cc(Cl)cs2)c(N2CCN(C3CCCCC3)CC2)s1)c1cnc(N2CCC(C(=O)O)CC2)c(Cl)c1 , state its recorded half-life at 14 days. 18 to 21 h

====

Assay: Example 2 multi-dose study: pharmacokinetics
Assay type: in vivo, human
Conditions: both sexes, human, in vivo, oral, 10 mg, 10 mg once daily, Study Day 1, mean; read-out: AUC0-last
Reported property: AUC(0-t) (ng·h/mL)
Unit ng·h/mL implied. Number only.

Given O=C(Nc1nc(-c2cc(Cl)cs2)c(N2CCN(C3CCCCC3)CC2)s1)c1cnc(N2CCC(C(=O)O)CC2)c(Cl)c1 [Formula I] , state its recorded AUC(0-t). 841

====

Experiment: Example 2 multi-dose study: pharmacokinetics
Assay type: in vivo, human
Conditions: both sexes, human, in vivo, oral; 10 mg once daily, Study Day 14, mean
Reported property: AUC(0-inf) (ng·h/mL)
Unit ng·h/mL implied. Number only.

Given O=C(Nc1nc(-c2cc(Cl)cs2)c(N2CCN(C3CCCCC3)CC2)s1)c1cnc(N2CCC(C(=O)O)CC2)c(Cl)c1 [Formula I] , state its recorded AUC(0-inf). 2870

====

Test: Example 1 single dose study: pharmacokinetics
Format: in vivo, human
Conditions: both sexes, plasma, oral; single 1 mg daily dose, human; read-out: mean AUC0-last
Reported property: AUC(0-t)

Given O=C(Nc1nc(-c2cc(Cl)cs2)c(N2CCN(C3CCCCC3)CC2)s1)c1cnc(N2CCC(C(=O)O)CC2)c(Cl)c1 [Formula I] , state its recorded AUC(0-t). ~130 ng·h/mL

====

Assay: Example 1 single dose study: pharmacokinetics
Assay type: in vivo, human
Conditions: both sexes, human, plasma, po, 20 mg, single oral dose 20 mg, healthy volunteers, preliminary mean; read-out: T½ (converted)
Reported property: half-life (h)
Unit h implied. Number only.

Given O=C(Nc1nc(-c2cc(Cl)cs2)c(N2CCN(C3CCCCC3)CC2)s1)c1cnc(N2CCC(C(=O)O)CC2)c(Cl)c1 , state its recorded half-life. 12.9

====

Test: Example 2 multi-dose study: pharmacokinetics
Format: in vivo, human
Details: both sexes, human, in vivo; 3 mg once daily oral suspension, Study Day 1, mean; read-out: Cmax
Reported property: Cmax (ng/mL)
Unit ng/mL implied. Number only.

Given O=C(Nc1nc(-c2cc(Cl)cs2)c(N2CCN(C3CCCCC3)CC2)s1)c1cnc(N2CCC(C(=O)O)CC2)c(Cl)c1 , state its recorded Cmax. 14.8

====

Test: Example 2 multi-dose study: pharmacokinetics
Assay type: in vivo, human
Details: both sexes, plasma, oral; 3 mg dose administered over about fourteen (14) days, human; read-out: mean maximum plasma concentration (Cmax)
Reported property: Cmax at 14 days

Given O=C(Nc1nc(-c2cc(Cl)cs2)c(N2CCN(C3CCCCC3)CC2)s1)c1cnc(N2CCC(C(=O)O)CC2)c(Cl)c1 , state its recorded Cmax at 14 days. ~25 ng/mL

====

Assay: Example 1 single dose study: pharmacokinetics
Format: in vivo, human
Settings: both sexes, human, plasma; single oral dose 1 mg, healthy volunteers, final mean
Reported property: AUC(0-inf)
Give me the value, and tack the unit on after it.

Given O=C(Nc1nc(-c2cc(Cl)cs2)c(N2CCN(C3CCCCC3)CC2)s1)c1cnc(N2CCC(C(=O)O)CC2)c(Cl)c1 , state its recorded AUC(0-inf). 183 ng·h/mL

====

Test: Example 1 single dose study: pharmacokinetics
Format: in vivo, human
Details: both sexes, human, serum; single oral dose 20 mg, healthy volunteers, final mean; read-out: AUC0-last
Reported property: AUC(0-t)

Given O=C(Nc1nc(-c2cc(Cl)cs2)c(N2CCN(C3CCCCC3)CC2)s1)c1cnc(N2CCC(C(=O)O)CC2)c(Cl)c1 , state its recorded AUC(0-t). 3600 ng·h/mL

====

Assay: Example 1 single dose study: pharmacokinetics
Format: in vivo, human
Conditions: both sexes, human, plasma, oral, 100 mg, 100 mg daily dose, human; read-out: mean maximum plasma concentration (Cmax)
Reported property: Cmax

Given O=C(Nc1nc(-c2cc(Cl)cs2)c(N2CCN(C3CCCCC3)CC2)s1)c1cnc(N2CCC(C(=O)O)CC2)c(Cl)c1 [Formula I] , state its recorded Cmax. ~388 ng/mL

====

Assay: Example 2 multi-dose study: pharmacokinetics
Type: in vivo, human
Details: both sexes, human, in vivo, oral, 20 mg, 20 mg once daily, Study Day 14, simulated data at steady-state; read-out: AUC0-last
Reported property: AUC(0-t)
Give me the value, and tack the unit on after it.

Given O=C(Nc1nc(-c2cc(Cl)cs2)c(N2CCN(C3CCCCC3)CC2)s1)c1cnc(N2CCC(C(=O)O)CC2)c(Cl)c1 , state its recorded AUC(0-t). 3610 ng·h/mL

====

Assay: Example 1 single dose study: pharmacokinetics
Format: in vivo, human
Details: both sexes, human, plasma; single oral dose 20 mg, healthy volunteers, preliminary mean
Reported property: AUC (ng·h/mL)
Unit ng·h/mL implied. Number only.

Given O=C(Nc1nc(-c2cc(Cl)cs2)c(N2CCN(C3CCCCC3)CC2)s1)c1cnc(N2CCC(C(=O)O)CC2)c(Cl)c1 , state its recorded AUC. 4020

====

Assay: Example 2 multi-dose study: pharmacokinetics
Assay type: in vivo, human
Conditions: both sexes, human, plasma, oral, 20 mg, 20 mg dose administered over about fourteen (14) days, human; Table 3: simulated data at steady-state; read-out: mean time to maximum plasma concentration (Tmax)
Reported property: Tmax at 14 days

Given O=C(Nc1nc(-c2cc(Cl)cs2)c(N2CCN(C3CCCCC3)CC2)s1)c1cnc(N2CCC(C(=O)O)CC2)c(Cl)c1 [Formula I] , state its recorded Tmax at 14 days. ~5.5 h

====

Experiment: Example 2 multi-dose study: pharmacokinetics
Assay type: in vivo, human
Details: both sexes, human, plasma, oral, 3 mg, 3 mg dose administered over about fourteen (14) days, human; read-out: mean time to maximum plasma concentration (Tmax)
Reported property: Tmax at 14 days

Given O=C(Nc1nc(-c2cc(Cl)cs2)c(N2CCN(C3CCCCC3)CC2)s1)c1cnc(N2CCC(C(=O)O)CC2)c(Cl)c1 , state its recorded Tmax at 14 days. ~6 h

====

Experiment: Example 1 single dose study: pharmacokinetics
Type: in vivo, human
Conditions: both sexes, human, plasma; single oral dose 100 mg, healthy volunteers, preliminary mean
Reported property: AUC (ng·h/mL)
Unit ng·h/mL implied. Number only.

Given O=C(Nc1nc(-c2cc(Cl)cs2)c(N2CCN(C3CCCCC3)CC2)s1)c1cnc(N2CCC(C(=O)O)CC2)c(Cl)c1 , state its recorded AUC. 10500
